Tested on: KM12
assay_notes: NCI tumour cell line growth inhibition, 48 h
Activity calls are given as the source filed them. Cut-off read from the data, not from the text of the source: active = GI50 up to about 1.1 µM and inactive = higher.
Would you mind telling me the reported GI50 of each entry?

Field: example entries. Status: answers known.
> print(dat)
                                   compound  assayed.target             measured
1  CC1=NN(c2nc(N)nc(/C(C#N)=C\c3ccc(-c4ccc([N+](=O)[O-])cc4)o3)n2)C(C)(C)C1            KM12  > 100 µM (inactive)
2  CCN(CC)C(c1ccc(N(C)C)cc1)C(c1ccc(N(C)C)cc1)N(CC)CC (configuration not stated)            KM12   22.9 µM (inactive)
3  COc1ccc(/C=N/n2c(Cc3ccccc3)n[nH]c2=O)cc1            KM12  > 100 µM (inactive)

# per-item lookup of GI50; items listed below
1. Cc1cc2occ(-c3ccc(Cl)cc3)c2c(=O)o1
2. COc1ccc(C2c3c(-c4ccccc4)nn(-c4ccccc4)c3Oc3ncn(N)c(=N)c32)cc1OC (configuration not stated)
3. NC(=O)C1CCN(Cc2c(Cl)c(Cl)c(CN3CCC(C(N)=O)CC3)c(Cl)c2Cl)CC1
4. O=c1[nH]c2c(c(=O)[nH]1)SC(c1ccccc1)C2 (configuration not stated)

A)
> 100 µM (inactive)
1.83 µM (inactive)
> 100 µM (inactive)
> 100 µM (inactive)
